- assay.target: human recombinant serotonin (5-Hydroxytryptamine) 5-HT2C receptor (Homo sapiens, UniProt P28335)
- Construct: expressed in transfected cells; host or cells: CHO-K1
- assay: Serotonin 5-HT2C radioligand binding ([3H]Mesulergine)
- condition.label: compound at 0.1 μM; read-out: Inhibition of ligand binding, Serotonin 5-HT2C (percent inhibition of specific binding)
measurement.type: inhibition at 0.1 µM

Completed entries (count: 4):
Cc1csc(-c2cscc2-n2c3c(c4cc(C)ccc42)CN(C)CC3)c1
92%
Cc1ccc2c(c1)c1c(n2-c2cscc2C(=O)N(C)C)CCN(C)C1
22%
Cc1ccc2c(c1)c1c(n2-c2ccccc2N(C)C)CCN(C)C1
90%
Cc1ccc2c(c1)c1c(n2-c2ccccc2-c2ccc(F)nc2)CCN(C)C1
75%

Record request: inhibition at 0.1 µM value, item Cc1ccc2c(c1)c1c(n2-c2cccc(-c3ccc(O)nc3)c2)CCN(C)C1
19%

Record request: inhibition at 0.1 µM value, item Cc1ccc2c(c1)c1c(n2-c2ccccc2-c2ccccc2)CCN(C)C1
97%

Record request: inhibition at 0.1 µM value, item Cc1ccc2c(c1)c1c(n2-c2cscc2-c2ccc3cnccc3c2)CCN(C)C1
10%

Record request: inhibition at 0.1 µM value, item Cc1ccc2c(c1)c1c(n2-c2ccc(-c3ccc(S(N)(=O)=O)cc3)cn2)CCN(C)C1
66%

Record request: inhibition at 0.1 µM value, item Cc1ccc2c(c1)c1c(n2-c2cscc2-c2ccccc2)CCN(C)C1
96%

Record request: inhibition at 0.1 µM value, item CNC(=O)c1ccc(-c2cccc(-n3c4c(c5cc(C)ccc53)CN(C)CC4)c2)cn1
25%

Record request: inhibition at 0.1 µM value, item Cc1ccc2c(c1)c1c(n2-c2cscc2-c2cnc(N(C)C)nc2)CCN(C)C1
35%

Record request: inhibition at 0.1 µM value, item CNC(=O)c1ccc(-c2cscc2-n2c3c(c4cc(C)ccc42)CN(C)CC3)cn1
43%

Record request: inhibition at 0.1 µM value, item Cc1ccc2c(c1)c1c(n2-c2ccc3ccccc3c2)CCN(C)C1
93%

Record request: inhibition at 0.1 µM value, item Cc1ccc2c(c1)c1c(n2-c2ccccc2-c2cncc3ccccc23)CCN(C)C1
66%

Record request: inhibition at 0.1 µM value, item Cc1ccc2c(c1)c1c(n2-c2cscc2-c2c(C)noc2C)CCN(C)C1
56%

Record request: inhibition at 0.1 µM value, item CNC(=O)c1cccc(-c2cscc2-n2c3c(c4cc(C)ccc42)CN(C)CC3)c1
67%

Record request: inhibition at 0.1 µM value, item Cc1ccc2c(c1)c1c(n2-c2cscc2-c2cccc3[nH]ncc23)CCN(C)C1
91%

Record request: inhibition at 0.1 µM value, item Cc1ccc2c(c1)c1c(n2-c2ccc3c(c2)CCN(C=O)C3)CCN(C)C1
51%

Record request: inhibition at 0.1 µM value, item Cc1ccc2c(c1)c1c(n2-c2ccccc2-c2ccc3c(ccn3C)c2)CCN(C)C1
50%

---

- assay.target: human recombinant histamine H1 receptor (Homo sapiens)
- Construct: expressed in transfected cells; host or cells: CHO-K1
- assay: Histamine H1 radioligand binding ([3H]Pyrilamine)
- condition.label: read-out: Histamine H1 Binding (1 μM), percent inhibition of specific binding; compound at 1 μM; 1.2 nM [3H]Pyrilamine
measurement.type: inhibition at 1 µM (%)
Write it as a number; the unit % goes unstated.

Cc1ccc2c(c1)c1c(n2-c2cccs2)CCN(C)C1
86

Record request: inhibition at 1 µM value, item Cc1ccc2c(c1)c1c(n2-c2ccccc2-c2c(C)noc2C)CCN(C)C1
18

Record request: inhibition at 1 µM value, item Cc1ccc2c(c1)c1c(n2-c2cscn2)CCN(C)C1
59

Record request: inhibition at 1 µM value, item Cc1ccc2c(c1)c1c(n2-c2ccc(-c3cnc(N(C)C)nc3)cn2)CCN(C)C1
7

---

- assay.target: human recombinant histamine H1 receptor (Homo sapiens, UniProt P35367)
- Construct: expressed in transfected cells; host or cells: CHO-K1
- Sequence (P35367 whole entry): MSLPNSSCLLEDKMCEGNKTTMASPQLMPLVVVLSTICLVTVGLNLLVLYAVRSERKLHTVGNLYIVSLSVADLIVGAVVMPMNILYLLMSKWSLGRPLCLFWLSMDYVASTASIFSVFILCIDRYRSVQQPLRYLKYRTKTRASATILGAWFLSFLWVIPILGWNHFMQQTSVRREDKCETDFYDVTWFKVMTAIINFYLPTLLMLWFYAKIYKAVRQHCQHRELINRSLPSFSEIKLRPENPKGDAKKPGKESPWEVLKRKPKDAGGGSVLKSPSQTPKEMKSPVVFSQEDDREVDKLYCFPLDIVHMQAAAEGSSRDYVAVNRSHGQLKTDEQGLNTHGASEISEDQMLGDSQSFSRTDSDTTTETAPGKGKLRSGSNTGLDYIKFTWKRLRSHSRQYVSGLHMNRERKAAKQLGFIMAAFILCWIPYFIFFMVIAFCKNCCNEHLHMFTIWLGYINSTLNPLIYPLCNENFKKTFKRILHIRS
- assay: Histamine H1 radioligand binding ([3H]Pyrilamine)
- condition.label: read-out: Histamine H1 Binding (1 μM), percent inhibition of specific binding; compound at 1 μM; 1.2 nM [3H]Pyrilamine
param class (str): category from inhibition at 1 µM; see ranges bottom: < 10%; middle: ≥ 10% and < 20%; top: ≥ 20%

Known results for compounds:
Cc1ccc2c(c1)c1c(n2-c2cscc2-c2ccc(C)s2)CCN(C)C1
top
Cc1csc(-c2ccccc2-n2c3c(c4cc(C)ccc42)CN(C)CC3)c1
middle
Cc1ccc2c(c1)c1c(n2-c2cscc2-c2ccc(O)nc2)CCN(C)C1
bottom
Cc1ccc2c(c1)c1c(n2-c2ccc(-c3ccncc3)cn2)CCN(C)C1
bottom
Cc1ccc2c(c1)c1c(n2-c2ccccc2)CCN(C)C1
top
CNC(=O)c1ccc(-c2ccccc2-n2c3c(c4cc(C)ccc42)CN(C)CC3)cn1
middle

Form field 'band' for Cc1ccc2c(c1)c1c(n2-c2cccc(-c3cn[nH]c3)c2)CCN(C)C1
bottom

---

- assay.target: human recombinant serotonin (5-Hydroxytryptamine) 5-HT2C receptor (Homo sapiens)
- Construct: expressed in transfected cells; host or cells: CHO-K1
- Sequence (P28335 33-458): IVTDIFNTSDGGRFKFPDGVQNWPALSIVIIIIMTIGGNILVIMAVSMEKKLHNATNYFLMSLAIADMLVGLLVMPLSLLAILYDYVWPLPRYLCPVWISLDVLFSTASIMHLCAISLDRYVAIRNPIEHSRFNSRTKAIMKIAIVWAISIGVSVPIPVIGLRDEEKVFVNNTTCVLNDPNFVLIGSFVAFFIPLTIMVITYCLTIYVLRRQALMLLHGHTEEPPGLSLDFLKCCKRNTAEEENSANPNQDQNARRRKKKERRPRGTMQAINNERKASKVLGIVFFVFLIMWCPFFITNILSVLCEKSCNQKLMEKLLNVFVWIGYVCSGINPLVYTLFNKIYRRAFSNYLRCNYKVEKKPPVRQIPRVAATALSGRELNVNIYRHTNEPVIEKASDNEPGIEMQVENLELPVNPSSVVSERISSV
- assay: Serotonin 5-HT2C radioligand binding ([3H]Mesulergine)
- condition.label: compound at 0.1 μM; read-out: Inhibition of ligand binding, Serotonin 5-HT2C (percent inhibition of specific binding)
Recorded inhibition at 0.1 µM values for a group of compounds are listed next.
Write it as a number; the unit % goes unstated.

Completed entries (count: 3):
CNC(=O)c1ccc(-c2ccccc2-n2c3c(c4cc(C)ccc42)CN(C)CC3)cc1
16
Cc1ccc2c(c1)c1c(n2-c2ccccc2-c2ccnn2C)CCN(C)C1
50
Cc1ccc2c(c1)c1c(n2-c2ccc(-c3cccnc3)cn2)CCN(C)C1
92

Record request: inhibition at 0.1 µM value, item Cc1ccc2c(c1)c1c(n2-c2cscc2-c2ccc(F)nc2)CCN(C)C1
74

Record request: inhibition at 0.1 µM value, item Cc1ccc2c(c1)c1c(n2-c2ccc3ccncc3c2)CCN(C)C1
51

Record request: inhibition at 0.1 µM value, item Cc1ccc2c(c1)c1c(n2-c2cscc2-c2ccc(F)cc2)CCN(C)C1
90

Record request: inhibition at 0.1 µM value, item Cc1ccc2c(c1)c1c(n2-c2ccccc2-c2cnn(C)c2)CCN(C)C1
71

---

- assay.target: human recombinant serotonin (5-Hydroxytryptamine) 5-HT2A receptor (Homo sapiens, UniProt P28223)
- Construct: expressed in transfected cells; host or cells: CHO-K1
- Sequence (P28223 whole entry): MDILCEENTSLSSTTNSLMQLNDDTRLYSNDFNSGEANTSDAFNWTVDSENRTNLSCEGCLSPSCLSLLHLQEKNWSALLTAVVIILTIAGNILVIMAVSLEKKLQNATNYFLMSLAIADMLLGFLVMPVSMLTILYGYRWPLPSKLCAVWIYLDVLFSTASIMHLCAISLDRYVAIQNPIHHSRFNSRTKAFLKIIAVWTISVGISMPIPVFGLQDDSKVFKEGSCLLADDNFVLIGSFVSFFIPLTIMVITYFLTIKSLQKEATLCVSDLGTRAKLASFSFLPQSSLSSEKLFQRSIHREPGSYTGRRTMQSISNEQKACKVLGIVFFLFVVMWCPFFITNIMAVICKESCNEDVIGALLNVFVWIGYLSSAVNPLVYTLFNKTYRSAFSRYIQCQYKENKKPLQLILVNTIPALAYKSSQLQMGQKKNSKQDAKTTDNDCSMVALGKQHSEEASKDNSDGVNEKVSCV
- assay: Serotonin 5-HT2A radioligand binding ([3H]Ketanserin)
- condition.label: compound at 0.1 μM; read-out: Inhibition of ligand binding, Serotonin 5-HT2A (percent inhibition of specific binding)
param class (str): category from inhibition at 0.1 µM; see ranges class 0: < 60%; class 1: ≥ 60% and < 80%; class 2: ≥ 80%

Known results for compounds:
Cc1ccc2c(c1)c1c(n2-c2ccc3ccccc3c2)CCN(C)C1
class 2
Cc1ccc2c(c1)c1c(n2-c2cscn2)CCN(C)C1
class 1
Cc1ccc2c(c1)c1c(n2-c2cnc(C)c3ccccc23)CCN(C)C1
class 0

Form field 'band' for Cc1ccc2c(c1)c1c(n2-c2ccccc2)CCN(C)C1
class 2

Form field 'band' for Cc1ccc2c(c1)c1c(n2-c2cscc2-c2ccc(C)s2)CCN(C)C1
class 1

Form field 'band' for Cc1ccc2c(c1)c1c(n2-c2ccc(-c3cnc(N(C)C)nc3)cn2)CCN(C)C1
class 2

Form field 'band' for Cc1ccc2c(c1)c1c(n2-c2ccc3cnccc3c2)CCN(C)C1
class 2

Form field 'band' for Cc1ccc2c(c1)c1c(n2-c2cscc2-c2ccc3cnccc3c2)CCN(C)C1
class 0

Form field 'band' for Cc1ccc2c(c1)c1c(n2-c2cccc(-c3ccc(S(C)(=O)=O)cc3)c2)CCN(C)C1
class 1

Form field 'band' for Cc1csc(-c2cccc(-n3c4c(c5cc(C)ccc53)CN(C)CC4)c2)c1
class 2

Form field 'band' for Cc1ccc2c(c1)c1c(n2-c2ccc3ncccc3c2)CCN(C)C1
class 1

Form field 'band' for Cc1ccc2c(c1)c1c(n2-c2ccccc2N(C)C)CCN(C)C1
class 2

Form field 'band' for Cc1ccc2c(c1)c1c(n2-c2ccccc2-c2cccnc2)CCN(C)C1
class 1

Form field 'band' for Cc1ccc2c(c1)c1c(n2-c2cccc3ccncc23)CCN(C)C1
class 1

Form field 'band' for CNC(=O)c1ccc(-c2cccc(-n3c4c(c5cc(C)ccc53)CN(C)CC4)c2)cn1
class 0

Form field 'band' for Cc1ccc2c(c1)c1c(n2-c2ccccc2-c2cc3ccccc3s2)CCN(C)C1
class 0

Form field 'band' for Cc1ccc2c(c1)c1c(n2-c2ccc(-c3c(C)noc3C)cn2)CCN(C)C1
class 1
